- Tested on: SF-539 CNS
- test_name: NCI-60 one-dose screen, 48 h
- experimental_setup: 10 µM unless noted
The panel holds about 83,000 compounds, 20% with a hit somewhere; the sample as a whole holds those more often. Active and inactive are the calls of the source. The calls were made as follows: active = growth percent below 10; inactive = the rest.
Choose one outcome from this list and give only that: Yes for active, No for inactive

Solved cases below.
[[record]]
compound = "COc1cc(-c2nn(-c3cccc(NC(=O)c4ccccc4)c3)cc2-c2ccncc2)ccc1Cl"
answer_label = "Yes"

[[record]]
compound = "CCC(C)/C(=C\\C#N)NCCCN/C(=C/C#N)C(C)CC (centres undefined)"
answer_label = "No"

[[record]]
compound = "COc1ccc(-c2nc(-c3nc4cc(C)c(C)cc4[nH]3)cc3c2[nH]c2ccccc23)cc1"
answer_label = "Yes"


Q: What did this assay record as the result for `CCCCN(CCCC)c1ccc(C(=N)c2ccc(N(CCCC)CCCC)cc2)cc1` ?
A: Yes

Q: # repeat for `C/C(=N/NC(=S)Nc1ccccc1)c1nc2ccc(Cl)cc2[nH]1`
A: Yes

Q: # repeat for `COc1cc(Nc2ncccc2C(=O)NCc2cn(Cc3cccc(Oc4ccccc4)c3)nn2)cc(OC)c1`
A: No

Q: # repeat for `Nc1ncnc2c1c(-c1ccc(Oc3ccccc3)cc1)nn2C[C@@H]1SSC[C@@H]1O`
A: No

Q: # repeat for CC(C)(C)N1CCC1C(N)=O (centres undefined)
A: No

Q: # repeat for `COC(=O)c1cccc2c1N(C)c1c(cccc1C(=O)OC)CC2`
A: No

Q: # repeat for `CCOC(=O)c1cn2c3c(cc(C)cc3c1=O)C(=O)/C(=C/c1ccccc1)C2`
A: No

Q: # repeat for `COc1ccc(-c2ccc(C)n2-c2ccc(-c3nc4ccccc4s3)cc2)cc1`
A: No

Q: # repeat for `S=c1[nH]nc(-c2cc3ccc2CCc2ccc(cc2)CC3)n1-c1ccccc1`
A: No

Q: # repeat for `CCCCCCCC[C@@H](O)CC(=O)N[C@@H](CC(N)=O)C(=O)N[C@@H](CCC(N)=O)C(=O)N[C@@H](CC(=O)c1cc(C)cc(O)c1C(=O)c1c(O)cccc1O)CC(C)C`
A: Yes

Q: # repeat for `O=C(Nc1cccc(-n2cc(-c3ccncc3)c(-c3ccc(Cl)c(O)c3)n2)c1)c1ccc(N2CCOCC2)c(C(F)(F)F)c1`
A: No

Q: # repeat for `Oc1ccc(Cl)cc1-c1cc(-c2ccc(F)cc2)n[nH]1`
A: No

---

- Test system: UACC-257 melanoma
- test_name: NCI-60 one-dose screen, 48 h (100 = growth as untreated, 0 = no growth, -100 = all killed)
- experimental_setup: 10 µM unless noted
The panel holds about 83,000 compounds, 20% with a hit somewhere; the sample as a whole holds those more often.
assay_endpoint: growth (%)
Numbers only, in %.

[[record]]
molecule = "Cc1ccc(N2CCN(C(C)C(N)=O)CC2)cc1 (stereo unspecified)"
experimental_value = 127

[[record]]
molecule = "O=[N+]([O-])c1cc(S(=O)(=O)Oc2ccccc2)ccc1Cl"
experimental_value = 45.4

[[record]]
molecule = "CCCN=C1NC(=O)/C(=C/c2nc(-c3ccc(OC)cc3)n3ccccc23)S1"
experimental_value = 110


Return reported growth values for all items listed beneath this line.
1. Cc1c(C(N)=O)sc2c1c(=O)n(Cc1ccccc1)c1nnc(Nc3ccccc3)n21
2. COc1ccc(-n2c(-c3ccccc3)c(-c3ccccc3)c3c(SCC(=O)N/N=C/c4ccc(Cl)cc4)ncnc32)cc1
3. CCCCC(CC)OC(=O)C(Br)CC (stereo unspecified)
4. OB(O)c1cccc(-c2nc3ccc4[nH]ncc4c3c3c2CCCC3)c1F
5. Nc1ncnc2c1c(-c1ccc(Oc3ccccc3)cc1)nn2C[C@@H]1SSC[C@@H]1O
6. Nc1cc2c(cc1C(=O)c1cccc(F)c1)OCCO2
7. COc1cc(-c2nn(-c3cccc(NC(=O)Nc4ccc(Cl)c(Cl)c4)c3)cc2-c2ccncc2)ccc1Cl
8. C=C1C(=O)O[C@H]2[C@H]1CC/C(Cn1cc(CNC(=O)/C=C/c3c[nH]c4ccccc34)nn1)=C\CC[C@@]1(C)O[C@@H]21

A:
92.3
95.1
104
115
14.6
93.4
-36.6
74.9

Return reported growth values for all items listed beneath this line.
1. CC(C)CC1NC(C)(C)CO1 (stereo unspecified)
2. Cc1cc(N)n(S(=O)(=O)c2oc(-c3ccccc3)nc2C#N)n1
3. O=C1Nc2ccc3c(c2/C1=C\c1cc2c(cc1Br)OCO2)OCO3
4. CC(C)c1ccc2occ(C=C3C(=O)NC(=O)NC3=O)c(=O)c2c1

A:
1: 112; 2: 101; 3: 58.3; 4: 96.1

Return reported growth values for all items listed beneath this line.
1. NC1=NN(O)C2=CC([N+](=O)[O-])C=CC2=N1 (stereo unspecified)
2. NC1=NC(SCc2ccccc2CCl)c2ncn(Cc3ccccc3CCl)c2N1 (stereo unspecified)
3. CC(C)(C)c1[nH]nc2c1C(c1cc3ccccc3[nH]c1=O)Nc1cc(C(=O)Nc3ccc(Cl)cc3)ccc1N2 (stereo unspecified)
4. CC(C)(C)n1cc(-c2ccnc(NCCCNS(=O)(=O)c3ccc(Br)cc3)c2)c(-c2cccc(O)c2)n1
5. O=C(Nc1cccc(-n2cc(-c3ccncc3)c(-c3ccc(Cl)c(O)c3)n2)c1)Nc1cc(C(F)(F)F)cc(C(F)(F)F)c1
6. CCNc1nc(S(=O)(=O)CC)nc2ccccc12

A:
94.8
42.5
83.9
9.16
-50.9
85.5

---

- System: SK-MEL-28 melanoma
- test_name: NCI-60 one-dose screen, 48 h (100 = growth as untreated, 0 = no growth, -100 = all killed)
- experimental_setup: 10 µM unless noted
Compounds without any hit were thinned out: in the full panel of roughly 83,000, 20% have a hit.
Record form. Attribute: growth. Fill in for each entry.
Numbers only, in %.

Take a look at these entries with their results.
[[record]]
smiles_entry = "COc1ccc(-c2ccc(C)n2-c2ccc(-c3nc4cc(Cl)ccc4s3)cc2)cc1"
experimental_value = 125

[[record]]
smiles_entry = "O=[N+]([O-])c1ccc(OCCCOc2ccccc2)cc1"
experimental_value = 103

[[record]]
smiles_entry = "COc1cc(/C(C#N)=C/c2ccc3c(c2OC)OCO3)cc2c1OCO2"
experimental_value = 45.7

[[record]]
smiles_entry = "Cc1ccc(C(=O)NCCCNc2nccc(-n3ccc4cccnc43)n2)cc1"
experimental_value = 106

[[record]]
smiles_entry = "Cc1nn(-c2ccc(Cl)cc2)c2ncnc(N/N=C/c3cccc([N+](=O)[O-])c3)c12"
experimental_value = 105


Return reported growth values for all items listed beneath this line.
1. O=[N+]([O-])c1ccc(Sc2ncccn2)c([N+](=O)[O-])c1
2. Clc1cc(Cl)cc(-c2ccc(-c3ccc(/C=N/NC4=NCCN4)cc3)s2)c1

A:
1: 71.9; 2: 97.3

---

- Tested on: KM12 colon
- test_name: NCI-60 one-dose screen, 48 h
- experimental_setup: 10 µM unless noted
Compounds without any hit were thinned out: in the full panel of roughly 83,000, 20% have a hit. Activity calls are given as the source filed them. Rule for the calls: active = growth percent below 10; inactive = the rest.
Choose one outcome from this list and give only that: active, inactive

[[record]]
compound = "COC(=O)c1cccc2c1N(C)c1c(cccc1C(=O)OC)CC2"
answer_label = "inactive"

[[record]]
compound = "CN1CCN(Cc2ccc(NC(=O)c3cncc(C#Cc4cnc(N)c5cnccc45)c3)cc2C(F)(F)F)CC1"
answer_label = "active"

[[record]]
compound = "C=C[C@@H]1C[C@H](O)Cc2ccccc2N1"
answer_label = "inactive"

[[record]]
compound = "N/C(=N\\S(=O)(=O)c1ccccc1)Nc1nc2ccccc2s1"
answer_label = "inactive"

[[record]]
compound = "COc1cccc(/C=C/C(=O)Nc2cc(OC)c3c(c2)OCO3)c1"
answer_label = "inactive"

[[record]]
compound = "COc1ccc(Nc2[nH]n3c(=O)cc(C)nc3c2C(N)=O)c(OC)c1"
answer_label = "inactive"


Q: What did this assay record as the result for `Cc1[nH]c2ccc(F)cc2c1CCNC(=O)C1CCN(C(=O)c2ccccc2)CC1` ?
A: inactive

Q: # repeat for `O=C(NCCCNc1nccc(-n2ccc3cccnc32)n1)c1c(F)cccc1F`
A: inactive

Q: # repeat for `Cc1cc(N/N=C/c2nc(-c3ccc(Br)cc3)oc2C)c2cc(Br)ccc2n1`
A: inactive

Q: # repeat for `CCN(CC)CCCNc1nccc2ccc(Cl)cc12`
A: inactive

Q: # repeat for `O=S(=O)(NCCNc1nccc(-c2c(-c3ccc(O)cc3)nc3sccn23)n1)c1cccc2ccccc12`
A: inactive

Q: # repeat for O=C(Oc1ccccc1[N+](=O)[O-])C1CCCN1C(=O)OCc1ccccc1 (stereo unspecified)
A: inactive

---

- Test system: T-47D breast
- test_name: NCI-60 one-dose screen, 48 h (100 = growth as untreated, 0 = no growth, -100 = all killed)
- experimental_setup: 10 µM unless noted
About 83,000 compounds went through this panel and 20% of them were active in at least one assay; those are over-represented in the sample as a whole.
Record form. Attribute: growth. Fill in for each entry.
Answers are plain numbers, in %.

Take a look at these entries with their results.
[[record]]
compound = "CCCCCCCCCCCCNC(=O)[C@H]1CSC(c2ccsc2)N1 (stereo not given in full)"
experimental_value = -41.2

[[record]]
compound = "Cc1csc(NC(c2ccccc2)c2c(C)nc3ccccn23)n1 (stereo not given)"
experimental_value = 86.9

[[record]]
compound = "COC(=O)C1CCCN1C(=O)[C@@H]1CCCN1C(=O)[C@H](Cc1c[nH]c2ccccc12)NC(=S)Nc1cc(C(F)(F)F)cc(C(F)(F)F)c1 (stereo not given in full)"
experimental_value = 49.8

[[record]]
compound = "COc1ccc(C(=O)N2NC(=O)/C(=C/c3ccc(Br)cc3)N=C2c2ccccc2)cc1"
experimental_value = 85.6

[[record]]
compound = "O=S(=O)(NCCNc1nccc(-c2c(-c3ccc(F)cc3)nc3sccn23)n1)c1ccc(F)cc1"
experimental_value = 60.1


Return reported growth values for all items listed beneath this line.
1. Cc1ccc(C(=O)C2=Cc3cc4ccccc4n3Cc3cnnn32)cc1
2. COc1ccc(C2C=C(c3ccc(OC)c(OC)c3)N=C3SC=C(C)N32)c(Br)c1 (stereo not given)
3. Oc1ccccc1/C=N/NC(=S)NC1CC2C=CC1C2 (stereo not given)

A:
1. 77.8
2. 98.3
3. 79.9

Return reported growth values for all items listed beneath this line.
1. COc1cccc(/C=C2\Oc3cc(OCCCN4CCCC4)ccc3C2=O)c1
2. CC(C)(C)n1cc(-c2ccnc(NCCNS(=O)(=O)c3ccc(Cl)cc3)c2)c(-c2cccc(O)c2)n1

A:
1. 88.1
2. 38
